Target: mMASP-2 (Mus musculus (Mouse), UniProt Q91WP0)
Sequence (Q91WP0 20-685): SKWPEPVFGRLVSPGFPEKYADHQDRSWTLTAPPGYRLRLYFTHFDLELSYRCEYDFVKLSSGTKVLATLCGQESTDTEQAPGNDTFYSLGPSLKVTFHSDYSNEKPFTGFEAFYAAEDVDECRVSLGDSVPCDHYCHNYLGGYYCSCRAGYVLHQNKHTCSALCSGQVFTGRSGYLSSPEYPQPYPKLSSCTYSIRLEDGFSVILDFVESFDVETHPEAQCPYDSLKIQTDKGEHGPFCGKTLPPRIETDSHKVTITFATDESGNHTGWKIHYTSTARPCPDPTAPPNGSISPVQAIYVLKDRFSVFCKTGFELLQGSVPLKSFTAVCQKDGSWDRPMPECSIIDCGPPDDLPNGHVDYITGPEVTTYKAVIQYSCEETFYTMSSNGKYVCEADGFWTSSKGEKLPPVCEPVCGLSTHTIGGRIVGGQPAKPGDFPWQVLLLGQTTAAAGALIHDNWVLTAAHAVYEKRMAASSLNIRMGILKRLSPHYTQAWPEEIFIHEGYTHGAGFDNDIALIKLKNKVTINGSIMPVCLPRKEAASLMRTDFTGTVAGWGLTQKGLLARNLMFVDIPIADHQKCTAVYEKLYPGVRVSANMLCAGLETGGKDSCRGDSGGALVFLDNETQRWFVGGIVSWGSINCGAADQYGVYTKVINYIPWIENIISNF
Assay: Enzymatic inhibition of mMASP-2
Type: biochemical
pKi: −log10 of the molar value. Where a name gives a salt, the structure may show the parent alone.

| compound | pKi |
| --- | --- |
| CCCOC(=O)NC(=N)c1ccc(CNC(=O)[C@H](C)NC(=O)[C@H]2C[C@H](c3ccccc3)CN2)cc1 | 5.00 to 5.60 |
| CC(=O)O/N=C(\N)c1ccc(CNC(=O)[C@H](C)NC(=O)[C@H]2C[C@H](c3ccccc3)CN2)cc1 | 4.60 to 5.00 |
| Cc1nc(N)ccc1CNC(=O)[C@H](C)NC(=O)[C@H]1C[C@@H](c2ccccc2)CCN1 | 5.60 to 6.30 |
| Cc1cc(Cl)cc(CNC(=O)[C@H](C)NC(=O)[C@H]2C[C@H](Cc3ccc4ccccc4c3)CN2)c1O | 5.60 to 6.30 |
| C[C@H](NC(=O)[C@H]1C[C@H](c2ccccc2)CN1)C(=O)NCc1ccc(C(=N)NC(=O)OCC(Cl)(Cl)Cl)cc1 | 5.00 to 5.60 |
| Cc1nc(N)ccc1CNC(=O)[C@H](CCC(N)=O)NC(=O)[C@H]1C[C@H](Cc2ccccc2)CN1 [compound 1382, Di-trifluoroacetate salt] | 5.00 to 5.60 |
| Cc1cnc(NCCc2ccccc2)c(=O)n1CC(=O)NCc1cnc2[nH]cc(Cl)c2c1 [compound 1490, Acetate salt] | 5.00 to 5.60 |
| C[C@H](NC(=O)[C@H]1C[C@H](c2ccccc2)CN1)C(=O)NCc1cc2ccncc2[nH]1 [compound 1495, Di-trifluoroacetate salt] | 5.60 to 6.30 |
